test system: MDA-MB-435; assay: NCI tumour cell line growth inhibition, 48 h

[
  {
    "compound": "CC(C)=CC(=O)c1[nH]c2ccccc2c1CC(=O)NCCc1cncn1C",
    "TGI": "> 100 µM"
  },
  {
    "compound": "CC(=O)OC1[C@H](OC(C)=O)C2=C(C)[C@@H](OC(C)=O)C[C@@]2(C(C)(C)O)[C@@H](OC(C)=O)[C@H]2[C@@]1(C)[C@@H](OC(C)=O)CC(OC(C)=O)[C@]21CO1 (stereo not given in full)",
    "TGI": "> 100 µM"
  },
  {
    "compound": "COC(=O)[C@H](Cc1cn(C)cn1)NC(=O)[C@H](C)NC(=O)Nc1cc(C(F)(F)F)cc(C(F)(F)F)c1",
    "TGI": "> 10 µM"
  },
  {
    "compound": "CC1SC2(CCCCC2)N(NC(=O)c2[nH]c3ccc(Br)cc3c2-c2ccccc2)C1=O (stereo not given)",
    "TGI": "> 100 µM"
  },
  {
    "compound": "O=C(Cn1c(C(=O)c2ccccc2)nc2ccccc21)c1ccccc1",
    "TGI": "> 100 µM"
  }
]
